Measured inhibition at 0.1 µM, listed per entry.
Biological target: human cloned 5-HT6 receptors (Homo sapiens, UniProt P50406)
Construct: expressed in transfected cells; host or cells: Hela cells
Sequence (P50406 whole entry): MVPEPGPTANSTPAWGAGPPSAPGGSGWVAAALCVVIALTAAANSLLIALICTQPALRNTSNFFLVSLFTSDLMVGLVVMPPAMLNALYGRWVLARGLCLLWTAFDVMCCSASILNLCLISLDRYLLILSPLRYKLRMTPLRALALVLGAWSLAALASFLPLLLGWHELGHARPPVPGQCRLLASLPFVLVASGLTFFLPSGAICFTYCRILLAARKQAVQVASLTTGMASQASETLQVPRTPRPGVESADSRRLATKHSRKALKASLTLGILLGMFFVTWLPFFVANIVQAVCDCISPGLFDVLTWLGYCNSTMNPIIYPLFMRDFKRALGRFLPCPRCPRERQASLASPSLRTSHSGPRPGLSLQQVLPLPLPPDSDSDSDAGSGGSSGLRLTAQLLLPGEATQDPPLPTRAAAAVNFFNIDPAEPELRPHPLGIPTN
Experiment: 5-HT6 binding affinity, [3H]-LSD displacement in membranes of Hela cells
Conditions: test compound dose 100 nM; [3H]-LSD 3.0 nM

Molecule | inhibition at 0.1 µM
CC(=NNC(=N)N)c1cn(S(=O)(=O)c2ccc([N+](=O)[O-])cc2)c2ccccc12 [Example 52] | 28.2%
CC(=NNC(=N)N)c1cn(S(=O)(=O)c2cccc3c(N(C)C)cccc23)c2ccccc12 [Example 38] | 25.8%
CC(=NNC(=N)N)c1cn(S(=O)(=O)c2ccc(Br)cc2)c2ccccc12 [Example 30] | 65%
CC(=NNC(=N)N)c1cn(S(=O)(=O)c2ccc(-c3ccccn3)s2)c2ccccc12 [Example 53] | 38.4%

---

Molecular target: human cloned 5-HT6 receptors (Homo sapiens)
Test: 5-HT6 binding affinity, [3H]-LSD displacement in membranes of Hela cells
pKi: −log10 of the molar value.
Measured pKi, listed per entry.
Endpoint Name: pKi

Entry Smiles | Measured Value
CC(=NNC(=N)N)c1cn(S(C)(=O)=O)c2cc(F)ccc12 | 7.74
CC(=NNC(=N)N)c1cn(S(=O)(=O)c2c(Cl)nc3sccn23)c2ccccc12 | 8.10
CC(=NNC(=N)N)c1cn(S(=O)(=O)c2ccc(Cl)s2)c2ccccc12 | 7.60
